Data provenance is ChEMBL document CHEMBL1151757.

test: Ratio of drug uptake in thalamus to cerebellum in anesthetized cynomolgus monkey after 135 mins postinjection; assay type: ADME, organism-based, Macaca fascicularis; conditions: in vivo, 2.25 h
readout name: Ratio
Respond numerically, and do not add a unit to the figure.

For orientation, consider the following solved cases.
[
  {
    "molecule": "O=C(OCCC[18F])C1C2CCC(CC1c1cccc(/C=C\\Br)c1)N2 (centres undefined)",
    "Ratio": 1.6
  },
  {
    "molecule": "O=C(OCC[18F])C1C2CCC(CC1c1cccc(/C=C\\I)c1)N2 (centres undefined)",
    "Ratio": 1.8
  },
  {
    "molecule": "O=C(OCCC[18F])C1C2CCC(CC1c1cccc(/C=C\\I)c1)N2 (centres undefined)",
    "Ratio": 1.5
  }
]

stdin: Tell me its Ratio given O=C(OCC[18F])C1C2CCC(CC1c1cccc(/C=C\Br)c1)N2 (centres undefined) as the entry.
stdout: 1.7
